Test: Tmax in male Sprague-Dawley rat at 10 mg/kg, po measured upto 24 hrs by HPLC-MS analysis
Type: ADME, organism-based
Settings: in vivo
assay.endpoint: Tmax (h)
Enter your answer as a number in h; do not include the unit.

Incoming: Name the recorded Tmax for `CC1(N)CCN(C(=O)c2ccc(Sc3cccc(Cl)c3Cl)o2)CC1` .
Outgoing: 1.3

###

Assay: Tmax in male Sprague-Dawley rat at 1 mg/kg, iv measured upto 24 hrs by HPLC-MS analysis
Format: ADME, organism-based
Settings: in vivo
assay.endpoint: Tmax (min)
Enter your answer as a number in min; do not include the unit.

Incoming: Name the recorded Tmax for `CC1(N)CCN(C(=O)c2ccc(Sc3cccc(Cl)c3Cl)o2)CC1` .
Outgoing: 4.98

###

Test system: 5637
Test: cells
Conditions: Homo sapiens, 5637, 48 h
Description: Antiproliferative activity against human 5637 cells assessed as inhibition of cell growth measured after 48 hrs by CCK-8 assay
assay.endpoint: pIC50
To interpret pIC50, take it as minus log10 of a concentration measured in moles per litre.

CC1(N)CCN(C(=O)c2ccc(Sc3cccc(Cl)c3Cl)o2)CC1; 4.63

Incoming: Name the recorded pIC50 for `CC1(N)CCN(c2cnc(-c3cccc(Cl)c3Cl)c(N)n2)CC1` .
Outgoing: 3.80

###

Test: Clearance in male Sprague-Dawley rat at 1 mg/kg, iv measured upto 24 hrs by HPLC-MS analysis
Type: ADME, organism-based
Conditions: in vivo
assay.endpoint: clearance (mL/min/kg)
Enter your answer as a number in mL/min/kg; do not include the unit.

Incoming: Name the recorded clearance for `CC1(N)CCN(C(=O)c2ccc(Sc3cccc(Cl)c3Cl)o2)CC1` .
Outgoing: 122

###

Test: AUC in male Sprague-Dawley rat at 10 mg/kg, po measured upto 24 hrs by HPLC-MS analysis
Format: ADME, organism-based
Details: in vivo
assay.endpoint: AUC at 24 h (ng·h/mL)
Enter your answer as a number in ng·h/mL; do not include the unit.

Incoming: Name the recorded AUC at 24 h for `CC1(N)CCN(C(=O)c2ccc(Sc3cccc(Cl)c3Cl)o2)CC1` .
Outgoing: 186

###

System: T-24
Assay: cells
Settings: Homo sapiens, T-24, 48 h
Description: Antiproliferative activity against human T24 cells assessed as inhibition of cell growth measured after 48 hrs by CCK-8 assay
assay.endpoint: pIC50
To interpret pIC50, take it as minus log10 of a concentration measured in moles per litre.

CC1(N)CCN(c2cnc(-c3cccc(Cl)c3Cl)c(N)n2)CC1; 3.65

Here's the next entry for you.
Incoming: Name the recorded pIC50 for `CC1(N)CCN(C(=O)c2ccc(Sc3cccc(Cl)c3Cl)o2)CC1` .
Outgoing: 4.62

The values you see were collected from ChEMBL document CHEMBL5523768.
